- Test system: PCSK9 gene
- Assay remarks: PCSK9 gRNA/SpCas9 editing in primary human hepatocytes (Tables 2, 4)
- Assay type: cell-based
- Assay context: modified gRNA, SpCas9 mRNA MS002 1:1 by weight; day 5 post transfection
- Experimental: In set of experiments, PCSK9 gRNAs were co-transfected with an equivalent amount (1:1 ratio by weight) of in vitro transcribed commercially available SpCas9 mRNA MS002 purchased from TriLink Biotechnologies into primary human hepatocytes at 2500, 500, or 100 ng/RNA/mL and processed as described in detailed methods. Extracted genomic DNA was analyzed for gene editing at the target site with next-generation sequencing of PCR amplicons generated around the target sites. […]
In the oligonucleotide strings, read from the 5' end, every base follows the letter of its sugar. An asterisk marks phosphorothioate; unmarked linkages are phosphodiester. Other units and linkages are bracketed, terminal groups are in braces. A string of capitals states the bases alone. m = 2'-O-methyl; r = 2'-OH (RNA)
Quantity name: % Editing, day 5
Answers without a unit are incomplete; give the number and then its unit.

// below: answered molecules
Query string: Recorded % Editing, day 5 for GA001: PCSK9 gRNA, GA156 spacer with modifications to the tracrRNA sequence (nucleic acid) guide: rG*rG*rU*rGrCrUrArGrCrCrUrUrGrCrGrUrUrCrCrGrGrUrUrUrUrArGrAmGmCmUmAmGmAmAmAmUmAmGmCrArArGrUrUrArArArArUrArArGrGrCrUrArGrUrCrCrGrUrUrArUrCrAmAmCmUmUmGmAmAmAmAmAmGmUmGmGmCmAmCmCmGmAmGmUmCmGmGmUmGmCmU*mU*mU*mU , please?
Result string: 27%

Query string: Which % Editing, day 5 value belongs to GA005: PCSK9 gRNA, GA156 spacer with modifications to the tracrRNA sequence (nucleic acid, chemistry not given here) guide: GGTGCTAGCCTTGCGTTCCGGTTTTAGAGCTAGAAATAGCAAGTTAAAATAAGGCTAGTCCGTTATCAACTTGAAAAAGTGGCACCGAGTCGGTGCTTTTT ?
Result string: 15%

Query string: Can you look up the measured % Editing, day 5 of GA003: PCSK9 gRNA, GA156 spacer with modifications to the tracrRNA sequence (nucleic acid) guide: mG*mG*mU*rGrCrUrArGrCrCrUrUrGrCrGrUrUrCrCrGrGrUrUrUrU*rArGrAmGmCmUmAmGmAmAmAmUmAmGmCrArArGrUrU*rArArArArU*rArArGrGrCrU*rArGrUrCrCrGrUrU*rArUrC*rAmAmCmUmUmGmAmAmAmAmAmGmUmGmGmCmAmCmCmGmAmGmUmCmGmGmUmGmCmU*mU*mU*mU for me?
Result string: 7%

Query string: Recorded % Editing, day 5 for GA009: minimally modified control gRNA, PCSK9 (nucleic acid) guide: mG*mG*mU*rGrCrUrArGrCrCrUrUrGrCrGrUrUrCrCrGrGrUrUrUrUrArGrArGrCrUrArGrArArArUrArGrCrArArGrUrUrArArArArUrArArGrGrCrUrArGrUrCrCrGrUrUrArUrCrArArCrUrUrGrArArArArArGrUrGrGrCrArCrCrGrArGrUrCrGrGrUrGrCrU*mU*mU*mU , please?
Result string: 19%

More entries:
Query string: Consider the molecule shown here: GA004: PCSK9 gRNA, GA156 spacer with modifications to the tracrRNA sequence (nucleic acid) guide: mG*mG*mU*rGrCrUrArGrCrCrUrUrGrCrGrUrUrCrCrGmGrUrUrUrUrArGmAmGmCmUmAmGmAmAmAmUmAmGmCmAmArGrUrUmArAmArAmUrAmAmGmGmCmUmArGrUmCmCrGrUrUrAmUmCrArAmCmUmUmGmAmAmAmAmAmGmUmGrGmCmAmCmCmGmAmGmUmCmGmGmUmGmCmUmUmUmUmU What is its recorded % Editing, day 5?
Result string: 12%

Query string: Need % Editing, day 5, item GA007: structure-guided 2′-OMe heavy guide RNA (gRNA) design, PCSK9 (nucleic acid) guide: mG*mG*mU*rGrCrUrArGrCrCrUrUrGrCrGrUrUrCrCrGmGrUrUrUrUrArGmAmGmCmUmAmGmAmAmAmUmAmGmCmAmArGrUrUmArAmArAmUrAmAmGmGmCmUmArGrUmCmCrGrUrUrAmUmCrArAmCmUmUmGmAmAmAmAmAmGmUmGrGmCmAmCmCmGmAmGmUmCmGmGmUmGmCmU*mU*mU*mU
Result string: 27%

Entry source: patent US20250152746A1
